Just for reference, ChEMBL document CHEMBL2086327 is where these values come from.

system: Nucleic Acid; assay: Binding affinity to Escherichia coli 23S rRNA U2506 assessed as degree of protection against CMCT at 50 uM by Chemical footprinting analysis relative to control; type: nucleic-acid assay
assay.endpoint: Ratio

smiles.record | Ratio
C=C[C@]1(C)C[C@@H](OC(=O)Cn2cc(COCn3cc(C)c(=O)[nH]c3=O)nn2)[C@]2(C)[C@H](C)CC[C@]3(CCC(=O)[C@H]32)[C@@H](C)[C@@H]1O | 0.07
C=C[C@]1(C)C[C@@H](OC(=O)Cn2cc(COCCn3cc(C)c(=O)[nH]c3=O)nn2)[C@]2(C)[C@H](C)CC[C@]3(CCC(=O)[C@H]32)[C@@H](C)[C@@H]1O | 0.08
C=C[C@]1(C)C[C@@H](OC(=O)CO)[C@]2(C)[C@H](C)CC[C@]3(CCC(=O)[C@@H]32)[C@@H](C)[C@@H]1O | 0.08
C=C[C@]1(C)C[C@@H](OC(=O)Cn2cc(COCc3ccccc3)nn2)[C@]2(C)[C@H](C)CC[C@]3(CCC(=O)[C@H]32)[C@@H](C)[C@@H]1O | 0.08
C=C[C@]1(C)C[C@@H](OC(=O)Cn2cc(C[C@@H]3[C@H](O)[C@@H](CO)O[C@H]3n3ccc(=O)[nH]c3=O)nn2)[C@]2(C)[C@H](C)CC[C@]3(CCC(=O)[C@H]32)[C@@H](C)[C@@H]1O | 0.09
